B1: PIP5K1C peptide 640-655 (Phosphatidylinositol 4-phosphate 5-kinase type-1 gamma), 16-mer library wild type / TLN1 PTB (TLN1 Phosphotyrosine-binding (PTB) domain, residues 309-401) (parent)
chain 1: FPTDERSWVYSPLHYS
chain 2: GVSFFLVKEKMKGKNKLVPRLLGITKECVMRVDEKTKEVIQEWNLTNIKRWAASPKSFTLDFGDYQDGYYSVQTTEGEQIAQLIAGYIDIILK

variants of: B1; assay: proteomic peptide phage display deep mutational scan (ProP-PD DMS): M13 P8 16-mer library selected against immobilised GST-tagged bait for four days (rounds), NGS of the eluted pools per day and pseudo-replica; settings: with TLN1 PTB (TLN1 Phosphotyrosine-binding (PTB) domain, residues 309-401); bait immobilised on MaxiSorp plates (10 µg), library pre-cleared on GST, 2 h binding at 4 °C, five washes; one round per day, days 1-4; value from days 2 and 3; keep out of graded; scale: average fractional NGS count over selection days 2 and 3
Catalogue of variants with associated screen value
Keep the answer to the number alone.

Here is how some variants turned out for screen value.
[
  {
    "mutation": "chain 1 V9W",
    "readoutKind": "screen value",
    "measured": 0.000872
  },
  {
    "mutation": "chain 1 H14T",
    "readoutKind": "screen value",
    "measured": 0.00119
  },
  {
    "mutation": "chain 1 T3Y",
    "readoutKind": "screen value",
    "measured": 0.000733
  },
  {
    "mutation": "chain 1 P12E",
    "readoutKind": "screen value",
    "measured": 0.00013
  },
  {
    "mutation": "chain 1 P2S",
    "readoutKind": "screen value",
    "measured": 0.000281
  },
  {
    "mutation": "chain 1 P2T",
    "readoutKind": "screen value",
    "measured": 0.000173
  },
  {
    "mutation": "chain 1 R6M",
    "readoutKind": "screen value",
    "measured": 0.00014
  },
  {
    "mutation": "chain 1 T3M",
    "readoutKind": "screen value",
    "measured": "2.4e-05"
  },
  {
    "mutation": "chain 1 P2V",
    "readoutKind": "screen value",
    "measured": 0.000569
  },
  {
    "mutation": "chain 1 D4R",
    "readoutKind": "screen value",
    "measured": 0.000156
  }
]

// query Which value of screen value has been reported for chain 1 Y10M in the records?
// result 0.00032

// query Name the reported screen value value associated with the variant chain 1 H14M
// result 0.00119

// query Can you look up the measured screen value of chain 1 Y15D for me?
// result 0.00126

// query Consider the variant shown here: chain 1 S7D What is its recorded screen value?
// result 8.2e-05

// query Which value of screen value has been reported for chain 1 T3A in the records?
// result 8.91e-05

// query So what's the measured screen value for this one? chain 1 R6Q
// result 9.86e-05

// query GET /values?readout=screen value&item= chain 1 T3P
// result 0.000173

// query Need screen value, item chain 1 L13G
// result 0.000132

// query Give the measured screen value of chain 1 S11A .
// result 7.18e-05

// query Reported screen value for chain 1 H14R : what is it?
// result 0.000159

// query Which screen value is reported for this variant? chain 1 R6W
// result 0.000249
